Catalogue of first signs of precipitation values
# Assay Summary: Solubility in RPMI 1640 medium, precipitation seen by bright field optical microscopy
# Run Parameters: immediately after dilution in RPMI 1640, FBS 5%, DMSO 1%
Write it as a number; the unit µM goes unstated.

Sample answers from the record:
CC1(C)OB(c2ccc(COC(=O)N(Cc3cn(Cc4ccc(Cn5cc(CCc6ccccc6)nn5)cc4)nn3)[c-]3cccc3)cc2)OC1(C)C.[Fe+2].c1cc[cH-]c1 [2d]    30
CC1(C)OB(c2ccc(COC(=O)N(Cc3cn(Cc4ccc(Cn5cc(Cc6ccccc6)nn5)cc4)nn3)[c-]3cccc3)cc2)OC1(C)C.[Fe+2].c1cc[cH-]c1 [2c]    30
CC1(C)OB(c2ccc(COC(=O)N(Cc3cn(CCc4ccccc4)nn3)[c-]3cccc3)cc2)OC1(C)C.[Fe+2].c1cc[cH-]c1 [2b]    50

Please turn your attention to the following entry.
Which first signs of precipitation reading was recorded for the molecule CC1(C)OB(c2ccc(COC(=O)N(Cc3cn(Cc4ccccc4)nn3)[c-]3cccc3)cc2)OC1(C)C.[Fe+2].c1cc[cH-]c1 [2a] ?
50
